# Test Description: inhibitors of intracellular T. cruzi replication, confirmation, NIH3T3 host cells, beta-gal luminescence (AID 2044);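 further: intracellular parasites grown in NIH/3T3 mouse fibroblasts as host cells; luminescent beta-galactosidase reporter signal from transgenic T. cruzi replicating inside host cells; inhibitors lower the luminescence signal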
# Format: functional, cell-based
Active and inactive are the calls of the source.
Kindly state EC50 for each of the entries shown.

Reference set (5 entries):
# Compound, EC50
measured = [
    ("CCCCNc1nc(N(C)c2ccccc2)nc(-n2ccnc2)n1", "550 nM (active)"),
    ("COc1ccc2nc(N3CCN(C(=O)c4ccc([N+](=O)[O-])o4)CC3)sc2c1", "434 nM (active)"),
    ("CC1C(=O)C(C)C(c2ccc([N+](=O)[O-])cc2)NC1c1ccc([N+](=O)[O-])cc1 (stereo unspecified)", "632 nM (active)"),
    ("COc1ccc2nc(N=C(S)N(C)C)sc2c1", "2030 nM (active)"),
    ("CC(NCc1cc(Br)ccc1OCC(=O)NCc1ccccc1)c1ccccc1 (stereo unspecified)", "2530 nM (active)"),
]

The record that follows has no EC50 shown yet.
Suppose we examine the compound CC(C)N1C(=O)/C(=C\c2nc3ccccc3c(=O)n2-c2ccccc2)c2ccccc21 ; what EC50 value has been reported?
1360 nM (active)

----------
# Measured On: Caspase-3 (Homo sapiens)
# Type: functional
The source made the active and inactive calls.
Field 'call' accepts active, inactive

Consider the worked cases shown below.
# Item Smiles, Discrete Label
data = [
    ("Cc1ccc(S(=O)(=O)/N=C2\\C=C(Nc3cccc(C(=O)O)c3)C(=O)c3ccccc32)c(C)c1", "active"),
    ("Cc1c(C(=O)O)cccc1-c1ccc(/C=C2/NC(=O)N(c3ccccc3)C2=O)o1", "inactive"),
    ("O=C(O)c1ccc(-c2ccc(OS(=O)(=O)c3ccccc3F)cc2)cc1", "inactive"),
]

Please share the test call associated with Nc1ccc(N2CCCCC2)c2nonc12 .
active

----------
Record form. Attribute: AC50. Fill in for each entry.
# Test Description: inhibitors of HIV Env-driven cell fusion, dose response, cherry-pick (AID 652057)
# Assay type: functional, cell-based
Active and inactive are the calls of the source.

Reference set, count: 4
# Compound, Data Value
records = [
    ("CN(C)C(=O)c1cccc(-c2cnc3sc(NCc4ccc5c(c4)OCO5)nn23)c1", "4.47 µM (active)"),
    ("COc1ccc(C(O)(CCC(C)C)C(CN2CCOCC2)c2ccccc2)cc1 (stereo not given)", "5.79 µM (active)"),
    ("CO[C@@H](CN(C)S(=O)(=O)c1ccc(Cl)cc1)[C@H](C)CN([C@@H](C)CO)S(=O)(=O)c1cccc(Cl)c1", "20 µM (active)"),
    ("C[C@H](CO)N1C[C@H](C)[C@H](CN(C)S(=O)(=O)c2cccs2)Oc2ccc(NC(=O)Cc3ccccc3)cc2CC1=O", "< 0.26 µM (active)"),
]

Request the reported AC50 associated with Fc1ccc(C(OCCN2CCN(CCCc3ccccc3)CC2)c2ccc(F)cc2)cc1
8.27 µM (active)

----------
# Measured On: Kappa-type opioid receptor (Homo sapiens, UniProt P41145)
# Sequence (P41145 whole entry): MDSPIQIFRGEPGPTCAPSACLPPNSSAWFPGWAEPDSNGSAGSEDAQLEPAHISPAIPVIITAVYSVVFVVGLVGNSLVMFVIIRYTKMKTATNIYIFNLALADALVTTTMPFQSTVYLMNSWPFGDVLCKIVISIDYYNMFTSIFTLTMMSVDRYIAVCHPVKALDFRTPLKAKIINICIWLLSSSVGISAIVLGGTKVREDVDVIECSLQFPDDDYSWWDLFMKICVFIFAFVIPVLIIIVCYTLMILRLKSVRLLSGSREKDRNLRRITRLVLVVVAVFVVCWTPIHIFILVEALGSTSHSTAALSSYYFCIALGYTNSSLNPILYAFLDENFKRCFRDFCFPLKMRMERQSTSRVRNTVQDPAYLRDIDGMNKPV
# Type: functional
Measured Endpoint: EC50

Please report the recorded EC50 for COc1ccc(C[C@@H]2CN3C(=NC[C@@H]3C)N2CCNC(=O)c2ccc(C)c(Br)c2)cc1 .
< 500 nM

----------
# Measured On: Prothrombin (Homo sapiens, UniProt P00734)
# Test Description: Thrombin 1536 HTS Dose Response Confirmation. [Related pubchem assays: 1046 (Thrombin 1536 HTS; hits were confirmed in this assay)]
# Format: functional
Activity calls are given as the source filed them.
Could you please report measured IC50 for the items listed next?

Completed entries (count: 2):
# Item Smiles, IC50
records = [
    ("CCN(CC)S(=O)(=O)c1ccc2c(c1)c(=O)c(C(=O)NCc1ccc3c(c1)OCO3)cn2C", "852 nM (active)"),
    ("CCCCn1nnc(N(C(=O)c2cccs2)C(=O)c2cccs2)n1", "880 nM (active)"),
]

Look up IC50 for the entries below, preserving their order.
1. O=C(Cc1ccccc1)n1nc(-c2ccccc2)nc1NCc1ccco1
2. O=C(Cn1nc(C(F)F)cc1C(F)F)NNC(=S)Nc1ccc(F)cc1

1: 100 nM (active); 2: > 50000 nM (not active)

----------
# Measured On: Heat shock factor protein 1 (Mus musculus)
# Sequence (P38532 whole entry): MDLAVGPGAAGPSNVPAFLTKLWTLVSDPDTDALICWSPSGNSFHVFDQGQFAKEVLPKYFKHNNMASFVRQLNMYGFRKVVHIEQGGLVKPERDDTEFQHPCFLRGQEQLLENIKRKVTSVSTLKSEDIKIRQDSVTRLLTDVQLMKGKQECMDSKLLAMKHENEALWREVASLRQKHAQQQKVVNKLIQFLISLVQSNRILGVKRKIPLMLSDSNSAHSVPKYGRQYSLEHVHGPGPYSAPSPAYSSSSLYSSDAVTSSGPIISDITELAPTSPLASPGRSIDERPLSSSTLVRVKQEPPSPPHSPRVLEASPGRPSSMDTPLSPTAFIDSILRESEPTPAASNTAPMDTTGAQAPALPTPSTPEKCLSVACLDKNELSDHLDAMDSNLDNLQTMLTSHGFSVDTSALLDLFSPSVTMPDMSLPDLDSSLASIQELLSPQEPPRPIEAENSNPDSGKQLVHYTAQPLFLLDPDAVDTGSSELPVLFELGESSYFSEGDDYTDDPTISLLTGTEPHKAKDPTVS
# Test Description: HSF1 potentiators in luciferase reporter cells, confirmation, cell-based, NIH3T3, luminescence, dose retest (AID 435004);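 further: stress induced by proteasome inhibitor MG132 added 30 min after compound; luciferase reporter driven by HSF1 response element in NIH3T3 cells; actives raise luminescence as potentiators of the MG132 stress response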
# Format: functional
Calls of active or inactive are those of the source.
Answer with one of the outcomes 1.0 (active), 0.0 (inactive)

// below: answered compounds
# Compound, Measured On, Discrete Label
measured = [
    ("CC1=CC2=C(OC1N(C)C)c1cccc3cccc(c13)C2=O (configuration not stated)", "Heat shock factor protein 1 (Mus musculus)", 0.0),
    ("CCCCN(C)C(=O)C1CCC(CNS(=O)(=O)c2ccc3c(c2)CC(C)N3C(=O)C2CC2)CC1 (configuration not stated)", "Heat shock factor protein 1 (Mus musculus)", 0.0),
    ("CCCc1n[nH]c2c1C(c1cc(OC)ccc1F)C(C#N)=C(N)O2 (configuration not stated)", "Heat shock factor protein 1 (Mus musculus)", 0.0),
    ("O=c1[nH]n(CC2COC3(CCCCC3)O2)c(=O)c2ccccc12 (configuration not stated)", "Heat shock factor protein 1 (Mus musculus)", 1.0),
    ("CCN(CCNC(=O)CN1CCN(Cc2ccc(Cl)cc2)C1=O)c1ccccc1", "Heat shock factor protein 1 (Mus musculus)", 0.0),
    ("CC(C)c1ccc(-n2cnn(-c3ncccc3[N+](=O)[O-])c2=O)cc1", "Heat shock factor protein 1 (Mus musculus)", 0.0),
]

Hi, do you know how Cc1cc(C)n2nc(N)c(N=Nc3cccc(Cl)c3)c2n1 came out in this test?
0.0

Now this one: N#Cc1ccsc1NC(=O)CN1CCN(S(=O)(=O)c2ccc3ccccc3c2)CC1
0.0

Can you handle CCOC(=O)c1c(NC(=O)c2nn(CC)cc2Br)c(C#N)nn1-c1ccccc1 next?
0.0

Would you mind doing O=c1[nH][nH]c2cc(=O)n(-c3cccc(C(F)(F)F)c3)nc12 as well?
0.0

Okay, and Cc1ccccc1-n1c(-c2ccc(Cl)cc2)cnc1SCC(=O)NC1CCS(=O)(=O)C1 (configuration not stated) ?
0.0

----------
# Measured On: Genome polyprotein (dengue virus type 2, UniProt P29990)
# Test Description: Dengue-2 NS5 methyltransferase inhibitors, primary screen, biochemical, confirmation dose response (AID 588689)
# Type: functional
Activity calls are given as the source filed them.
Measured Endpoint: IC50

Please review the following examples before continuing.
# Compound, Measured On, Data Value
data = [
    ("COC(=O)CCC(=O)OC1(C)C(=O)C2=CN(Cc3ccccc3)C(c3ccc(OC)cc3)=CC2=C(Br)C1=O (stereo not given)", "Genome polyprotein (dengue virus type 2, UniProt P29990)", "39.1 µM (active)"),
    ("CC(C)c1ccc(-c2csc(NC(=O)c3cccs3)c2C(=O)O)cc1", "Genome polyprotein (dengue virus type 2, UniProt P29990)", "39.9 µM (active)"),
    ("O=C(O)C(Cc1ccccc1)N1C(=O)C=CC1=O (stereo not given)", "Genome polyprotein (dengue virus type 2, UniProt P29990)", "> 100 µM (active)"),
]

Please give IC50 for each item listed below.
1. COc1ccc2c([N+](=O)[O-])c(Cl)[nH]c2c1
2. COc1ccc(-c2cc(C(F)(F)F)c3c(=O)n(-c4ccccc4)[nH]c3n2)cc1

["> 100 µM (active)", "44.2 µM (active)"]

----------
# Test Description: control 3'UTR Renilla luciferase suppression, dose response, counter-screen for Shn3 inhibitor project, cell-based, Clone20-Shn3RL, cherry-picked (AID 624133)
# Format: functional
Activity calls are given as the source filed them.
Provide the recorded AC50 for the entries that follow.

# count of solved cases: 3
# Compound, Data Value
records = [
    ("Cc1cccc(N2C(=O)NC(=O)/C(=C\\C=C\\c3ccco3)C2=O)c1", "26.4 µM (active)"),
    ("COc1ccc(NC(=O)/C(Cl)=C(/Cl)[S+]([O-])Cc2ccccc2)cn1 (centres undefined)", "< 0.26 µM (active)"),
    ("CCCCC(=O)NC(c1ccc(OC)c(OC)c1)c1ccc2cccnc2c1O (centres undefined)", "1.4 µM (active)"),
]

Look up AC50 for this compound: CN(C)CC(C(=O)Cc1ccccc1)c1ccccc1 (centres undefined)
7.58 µM (active)

----------
Please respond with reported EC50 for every item in the list.
# Measured On: Zinc finger protein mex-5 (Caenorhabditis elegans)
# Sequence (Q9XUB2 whole entry): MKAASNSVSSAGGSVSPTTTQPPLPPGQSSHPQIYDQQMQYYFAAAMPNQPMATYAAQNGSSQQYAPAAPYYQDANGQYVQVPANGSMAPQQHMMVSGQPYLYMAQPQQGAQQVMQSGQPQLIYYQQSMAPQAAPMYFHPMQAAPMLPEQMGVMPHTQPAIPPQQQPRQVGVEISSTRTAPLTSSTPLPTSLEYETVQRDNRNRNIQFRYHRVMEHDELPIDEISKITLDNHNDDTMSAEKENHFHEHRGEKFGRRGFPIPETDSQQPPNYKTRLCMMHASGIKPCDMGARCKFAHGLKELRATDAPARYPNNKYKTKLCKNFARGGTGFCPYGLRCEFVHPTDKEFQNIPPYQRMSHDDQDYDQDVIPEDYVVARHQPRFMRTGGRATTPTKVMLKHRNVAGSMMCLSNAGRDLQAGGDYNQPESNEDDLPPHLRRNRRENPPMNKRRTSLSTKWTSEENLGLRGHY
# Test Description: MEX-5/TCR-2 RNA interaction inhibitors, dose response, biochemical, C. elegans, fluorescence polarization (AID 1960)
Active and inactive are the calls of the source.

# Compound, EC50
rows = [
    ("CC(C)c1ccc(/C=C(\\NC(=O)c2ccccc2)C(=O)NCCN2CCOCC2)cc1", "> 300 µM (not active)"),
    ("CN1C(=O)NC(=O)/C(=C/c2ccc[nH]2)C1=O", "> 300 µM (not active)"),
    ("O=C(NNC(=O)c1ccccc1O)c1cccc(Br)c1", "25.6 µM (active)"),
    ("Cc1nc(/C=C2\\C(=O)Nc3ccccc32)c[nH]1", "> 300 µM (not active)"),
    ("CSCC(C)N1CCC(Oc2cccc(C(=O)NCc3ccccn3)c2)CC1 (stereo unspecified)", "75.4 µM (active)"),
]

Please examine the following record next.
For the compound CCN1CCN(Cc2c(C(=O)N/N=C(\C)c3ccc(Cl)cc3)nnn2-c2nonc2N)CC1 , what EC50 is on record?
> 300 µM (not active)
